B1: TRIM55 (parent)
chain: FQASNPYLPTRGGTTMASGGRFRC

variants of: B1; experiment: protein stability index of a GFP-peptide fusion (GPS, HEK-293T) (PSI 1-6); higher = more stable; conditions: c terminus: a fixed tail appended;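 also: lentivirally expressed fusions sorted by FACS into six bins by GFP to DsRed ratio, PSI derived from sequencing read proportions per bin multiplied by bin number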
Consider the following variants; for each one, report its protein stability index.
Give bare numbers.

// solved cases for protein stability index follow
# variant.annotation, protein stability index
measured = [
    ("C24T", 2),
    ("G20Q", 1.68),
    ("A17P", 1.76),
    ("G20D", 1.72),
    ("T14A", 1.93),
]

Return reported protein stability index values for all items listed beneath this line.
1. Q2E
2. Q2T
3. M16H
4. S18K
5. S4N

A)
1: 3.38; 2: 1.68; 3: 1.69; 4: 3.05; 5: 1.72
